Catalogue of IC50 values
system: KRAS PDC tumor spheroids (HUVEC+MSC), viability; assay: Anticancer human tumor 254851-301-R-J1-PDC patient-derived colon carcinoma cell line growth inhibition [KRAS2]; conditions: curve of first compound; second compound 1 µM

[
  {
    "compound": "CN(C)C/C=C/C(=O)Nc1cc2c(Nc3ccc(F)c(Cl)c3)ncnc2cc1O[C@H]1CCOC1 + C=CC(=O)N1CCN(c2nc(OCC3CCCN3C)nc3c2CCN(c2cccc4cccc(C)c24)C3)CC1CC#N",
    "target.system": "KRAS PDC tumor spheroids (HUVEC+MSC), viability",
    "IC50": "> 0.1 µM"
  },
  {
    "compound": "COc1cc2nccc(Oc3ccc(NC(=O)C4(C(=O)Nc5ccc(F)cc5)CC4)cc3)c2cc1OC + C=CC(=O)N1CCN(c2nc(=O)n(-c3c(C)ccnc3C(C)C)c3nc(-c4c(O)cccc4F)c(F)cc23)C(C)C1",
    "target.system": "KRAS PDC tumor spheroids (HUVEC+MSC), viability",
    "IC50": "> 10 µM"
  },
  {
    "compound": "O=C(c1cc(Cc2n[nH]c(=O)c3ccccc23)ccc1F)N1CCN(C(=O)C2CC2)CC1 + CNCc1ccccc1-c1csc(C(C)Nc2nc(C)nc3cc(OC)c(OC)cc23)c1",
    "target.system": "KRAS PDC tumor spheroids (HUVEC+MSC), viability",
    "IC50": "> 10 µM"
  },
  {
    "compound": "Cn1ncnc1[C@H]1c2n[nH]c(=O)c3cc(F)cc(c23)N[C@@H]1c1ccc(F)cc1 + CNCc1ccccc1-c1csc(C(C)Nc2nc(C)nc3cc(OC)c(OC)cc23)c1",
    "target.system": "KRAS PDC tumor spheroids (HUVEC+MSC), viability",
    "IC50": "> 0.1 µM"
  },
  {
    "compound": "CN(C)C/C=C/C(=O)Nc1cc2c(Nc3ccc(F)c(Cl)c3)ncnc2cc1O[C@H]1CCOC1 + CNCc1ccccc1-c1csc(C(C)Nc2nc(C)nc3cc(OC)c(OC)cc23)c1",
    "target.system": "KRAS PDC tumor spheroids (HUVEC+MSC), viability",
    "IC50": "> 0.1 µM"
  },
  {
    "compound": "CCNC(=O)CC1N=C(c2ccc(Cl)cc2)c2cc(OC)ccc2-n2c(C)nnc21 (stereo unspecified) + CNCc1ccccc1-c1csc(C(C)Nc2nc(C)nc3cc(OC)c(OC)cc23)c1",
    "target.system": "KRAS PDC tumor spheroids (HUVEC+MSC), viability",
    "IC50": "> 10 µM"
  }
]

----------
system: KRAS PDC tumor spheroids (HUVEC+MSC), viability; assay: Anticancer human tumor 254851-301-R-J1-PDC cell line growth inhibition [KRAS2]; conditions: second compound 0.316 µM; first compound 0.0316 µM; stronger effect = lower value;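 also: spheroids exposed to compounds for seven days before readout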;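 as to viability, T/C: 100% = DMSO vehicle control luminescence of the spheroids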
Catalogue of viability, T/C values
measured.endpoint: viability, T/C (%)

[
  {
    "molecule": "COC(=O)c1ccc2c(C(=Nc3ccc(N(C)C(=O)CN4CCN(C)CC4)cc3)c3ccccc3)c(O)[nH]c2c1 + C=CC(=O)N1CCN(c2nc(OCC3CCCN3C)nc3c2CCN(c2cccc4cccc(C)c24)C3)CC1CC#N",
    "assay.result": 81
  },
  {
    "molecule": "Cn1ncnc1[C@H]1c2n[nH]c(=O)c3cc(F)cc(c23)N[C@@H]1c1ccc(F)cc1 + C=CC(=O)N1CCN(c2nc(=O)n(-c3c(C)ccnc3C(C)C)c3nc(-c4c(O)cccc4F)c(F)cc23)C(C)C1",
    "assay.result": 88.5
  },
  {
    "molecule": "COc1cc2nccc(Oc3ccc(NC(=O)C4(C(=O)Nc5ccc(F)cc5)CC4)cc3)c2cc1OC + CC1OCC2(CCN(c3cnc(Sc4ccnc(N)c4Cl)c(N)n3)CC2)C1N",
    "assay.result": 98.7
  },
  {
    "molecule": "COC(=O)c1ccc2c(C(=Nc3ccc(N(C)C(=O)CN4CCN(C)CC4)cc3)c3ccccc3)c(O)[nH]c2c1 + C=CC(=O)N1CCN(c2nc(=O)n(-c3c(C)ccnc3C(C)C)c3nc(-c4c(O)cccc4F)c(F)cc23)C(C)C1",
    "assay.result": 89
  },
  {
    "molecule": "CC(=O)OC12COC1CC(O)C1(C)C(=O)C(O)C3=C(C)C(OC(=O)C(O)C(NC(=O)OC(C)(C)C)c4ccccc4)CC(O)(C(OC(=O)c4ccccc4)C21)C3(C)C (configuration not stated) + C=CC(=O)N1CCN(c2nc(OCC3CCCN3C)nc3c2CCN(c2cccc4cccc(C)c24)C3)CC1CC#N",
    "assay.result": 88
  },
  {
    "molecule": "CC1COCCN1c1cc(-c2ccnn2C)c2ccnc(-c3ccn[nH]3)c2n1 (configuration not stated) + CC1OCC2(CCN(c3cnc(Sc4ccnc(N)c4Cl)c(N)n3)CC2)C1N",
    "assay.result": 101
  },
  {
    "molecule": "CC1OCC2(CCN(c3cnc(Sc4ccnc(N)c4Cl)c(N)n3)CC2)C1N (configuration not stated) + CNCc1ccccc1-c1csc(C(C)Nc2nc(C)nc3cc(OC)c(OC)cc23)c1",
    "assay.result": 92.2
  }
]

----------
system: KRAS PDC tumor spheroids (HUVEC+MSC), viability; assay: Anticancer human tumor 254851-301-R-J1-PDC cell line growth inhibition [KRAS2]; details: second compound 10 µM; first compound 1 µM; stronger effect = lower value;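 also: spheroids exposed to compounds for seven days before readout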;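 as to viability, T/C: 100% = DMSO vehicle control luminescence of the spheroids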
Catalogue of viability, T/C values

[
  {
    "compound": "Cn1nccc1Nc1nccc(-c2cc3c(s2)C(C)(C)N(CCN2CCOCC2)C3=O)n1 + C=CC(=O)N1CCN(c2nc(=O)n(-c3c(C)ccnc3C(C)C)c3nc(-c4c(O)cccc4F)c(F)cc23)C(C)C1",
    "result.unit": "%",
    "viability, T/C": 74.9
  },
  {
    "compound": "COc1cc2nccc(Oc3ccc(NC(=O)C4(C(=O)Nc5ccc(F)cc5)CC4)cc3)c2cc1OC + CNCc1ccccc1-c1csc(C(C)Nc2nc(C)nc3cc(OC)c(OC)cc23)c1",
    "result.unit": "%",
    "viability, T/C": 0.18
  },
  {
    "compound": "COc1cc2nccc(Oc3ccc(NC(=O)C4(C(=O)Nc5ccc(F)cc5)CC4)cc3)c2cc1OC + COc1cc2nc(C)nc(NC(C)c3cc(N)cc(C(F)(F)F)c3)c2cc1OC1CCOC1",
    "result.unit": "%",
    "viability, T/C": 67.2
  },
  {
    "compound": "CC1OCC2(CCN(c3cnc(Sc4ccnc(N)c4Cl)c(N)n3)CC2)C1N (stereo not given) + CNCc1ccccc1-c1csc(C(C)Nc2nc(C)nc3cc(OC)c(OC)cc23)c1",
    "result.unit": "%",
    "viability, T/C": 0.09
  },
  {
    "compound": "CC(=O)OC12COC1CC(O)C1(C)C(=O)C(O)C3=C(C)C(OC(=O)C(O)C(NC(=O)OC(C)(C)C)c4ccccc4)CC(O)(C(OC(=O)c4ccccc4)C21)C3(C)C (stereo not given) + CC1OCC2(CCN(c3cnc(Sc4ccnc(N)c4Cl)c(N)n3)CC2)C1N",
    "result.unit": "%",
    "viability, T/C": 16.1
  }
]

----------
Catalogue of IC50 values
test system: KRAS PDC tumor spheroids (HUVEC+MSC), viability; assay: Anticancer human tumor 254851-301-R-J1-PDC cell line growth inhibition [KRAS2]; conditions: curve of first compound; second compound 0.316 µM;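 also: spheroids exposed to compounds for seven days before readout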

[
  {
    "compound": "O=C(c1cc(Cc2n[nH]c(=O)c3ccccc23)ccc1F)N1CCN(C(=O)C2CC2)CC1 + CNCc1ccccc1-c1csc(C(C)Nc2nc(C)nc3cc(OC)c(OC)cc23)c1",
    "IC50": "> 10 µM"
  },
  {
    "compound": "CN(C)C/C=C/C(=O)Nc1cc2c(Nc3ccc(F)c(Cl)c3)ncnc2cc1O[C@H]1CCOC1 + C=CC(=O)N1CCN(c2nc(=O)n(-c3c(C)ccnc3C(C)C)c3nc(-c4c(O)cccc4F)c(F)cc23)C(C)C1",
    "IC50": "> 0.1 µM"
  },
  {
    "compound": "COc1cc2nccc(Oc3ccc(NC(=O)C4(C(=O)Nc5ccc(F)cc5)CC4)cc3)c2cc1OC + COc1cc2nc(C)nc(NC(C)c3cc(N)cc(C(F)(F)F)c3)c2cc1OC1CCOC1",
    "IC50": "> 10 µM"
  }
]

----------
Tested on: KRAS PDC tumor spheroids (HUVEC+MSC), viability
Test: Anticancer human tumor 254851-301-R-J1-PDC cell line growth inhibition [KRAS2];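 also: spheroids exposed to compounds for seven days before readout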;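 as to viability, T/C: 100% = DMSO vehicle control luminescence of the spheroids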
Conditions: second compound 0.1 µM; first compound 0.001 µM; stronger effect = lower value
Source text: Multicellular complex tumor spheroid response to RAS pathway inhibitors in combination with a targeted agents in patient-derived cell lines with oncogenic KRAS variants from multiple cancer types A high-throughput screen of multi-cell type tumor spheroids was designed to identify active combinations of targeted small molecules and KRAS pathway inhibitors. […] Compounds. […] If the clinical Cmax for an agent had not been determined, the highest concentration tested was 10 microM. […]

[
  {
    "compound": "Cn1ncnc1[C@H]1c2n[nH]c(=O)c3cc(F)cc(c23)N[C@@H]1c1ccc(F)cc1 + C=CC(=O)N1CCN(c2nc(OCC3CCCN3C)nc3c2CCN(c2cccc4cccc(C)c24)C3)CC1CC#N",
    "target.system": "KRAS PDC tumor spheroids (HUVEC+MSC), viability",
    "viability, T/C [%]": 105
  },
  {
    "compound": "CC(=O)Nc1cccc(-n2c(=O)n(C3CC3)c(=O)c3c(Nc4ccc(I)cc4F)n(C)c(=O)c(C)c32)c1 + C=CC(=O)N1CCN(c2nc(OCC3CCCN3C)nc3c2CCN(c2cccc4cccc(C)c24)C3)CC1CC#N",
    "target.system": "KRAS PDC tumor spheroids (HUVEC+MSC), viability",
    "viability, T/C [%]": 95.4
  },
  {
    "compound": "Cn1ncnc1[C@H]1c2n[nH]c(=O)c3cc(F)cc(c23)N[C@@H]1c1ccc(F)cc1 + CC1OCC2(CCN(c3cnc(Sc4ccnc(N)c4Cl)c(N)n3)CC2)C1N",
    "target.system": "KRAS PDC tumor spheroids (HUVEC+MSC), viability",
    "viability, T/C [%]": 102
  },
  {
    "compound": "Cn1ncnc1[C@H]1c2n[nH]c(=O)c3cc(F)cc(c23)N[C@@H]1c1ccc(F)cc1 + CNCc1ccccc1-c1csc(C(C)Nc2nc(C)nc3cc(OC)c(OC)cc23)c1",
    "target.system": "KRAS PDC tumor spheroids (HUVEC+MSC), viability",
    "viability, T/C [%]": 90.7
  }
]
